Hey, just so you know, these numbers are from the RNAGym collection of RNA variant scans (doi:10.7554/elife.80360).

I'd be grateful if you could share measured self-cleavage for these entries.
B1: Hairpin Ribozyme (parent)
chain: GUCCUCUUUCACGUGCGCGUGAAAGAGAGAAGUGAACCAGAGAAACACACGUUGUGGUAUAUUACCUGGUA

# Variants of: B1
# measurementDescription: self-cleavage, relative activity (ratio to wild type); higher = more cleavage; co-transcriptional
// no unit, no text: just the number

Query: Could you tell me which self-cleavage is on file for CUCCUCUUUCACGUGCGCGUGAAAGAGAGAAGUGAACAAGAGAAACACACGUUGUGGUAUAUUACCUGGUA [G1C C38A] ?
Result: 0.281

Query: // query: AUCCUCUUUCACGUGCGCGUGAAAGAGAGAAGUGAACCAGAGAAACACACGUUGUGGUAUAUUACUUGGUA [G1A C66U]
Result: 0.127

Query: // query: GUCCUCUUUCACGUGUGCGUGAAAGAGAGAAGUGAACCAGAGAAAAACACGUUGUGGUAUAUUACCUGGUA [C16U C46A]
Result: 0.177

Query: // query: GUCCUCUUUCACGUGCGCGUGAAAGAGAGAAGUGAACCAAAGAAACACACGUGGUGGUAUAUUACCUGGUA [G40A U53G]
Result: 0.169

Query: // query: GUCCUCUUUCACGUGCGCGUGAAAGAAAGAAGUGAACCAGAGAAAAACACGUUGUGGUAUAUUACCUGGUA [G27A C46A]
Result: 0.103

Query: // query: UUCCUCUUUCACGUGCGCGUGAAAGAGCGAAGUGAACCAGAGAAACACACGUUGUGGUAUAUUACCUGGUA [G1U A28C]
Result: 0.0863

Query: // query: GUCCUCUUUCACGUGCGAGUGAAAGAGAGAAGUGAACCAGAGAAACACAAGUUGUGGUAUAUUACCUGGUA [C18A C50A]
Result: 0.314

Query: // query: GUCCUGUUUCACGUGCGCGUGCAAGAGAGAAGUGAACCAGAGAAACACACGUUGUGGUAUAUUACCUGGUA [C6G A22C]
Result: 0.342

Query: // query: GUCGUCUUUCACGUGCGCGUGAAAGAGAGAAGUGAACCAGAGAAACACACGUUGUGGUAUCUUACCUGGUA [C4G A61C]
Result: 0.164

Query: // query: GUCCUCUUUCACUUGCUCGUGAAAGAGAGAAGUGAACCAGAGAAACACACGUUGUGGUAUAUUACCUGGUA [G13U G17U]
Result: 0.712

Query: // query: GUCCUAUUUCACGUGCGCGUGAAAGAGAGAAGCGAACCAGAGAAACACACGUUGUGGUAUAUUACCUGGUA [C6A U33C]
Result: 0.0869

Query: // query: GUCCUCUUUCACAUGCGCGUGAAUGAGAGAAGUGAACCAGAGAAACACACGUUGUGGUAUAUUACCUGGUA [G13A A24U]
Result: 0.627

Query: // query: GUCCUCUUUCACGUGCGCGUGAAAGAGAGGAGUGAACCAGAGAAACACACGUUGUGGUUUAUUACCUGGUA [A30G A59U]
Result: 0.305

Query: // query: GUCCUCUUUCACGUGCGCGUGAAAGAGAGAAGUUAACCAGAGAAACACACGUUGUGGUAUCUUACCUGGUA [G34U A61C]
Result: 1.2

Query: // query: GUCCUCUUUCACGUGCGCGUGAAAGAGAGAAGUGAACCACAGAAACACACGUUGUGGUAAAUUACCUGGUA [G40C U60A]
Result: 0.0252

Query: // query: GUCCUCUUUCUCGUGCGCGUGAUAGAGAGAAGUGAACCAGAGAAACACACGUUGUGGUAUAUUACCUGGUA [A11U A23U]
Result: 0.728

Query: // query: GUCCUCUUUCACGUGCGAGUGAAAGAGAGAAGUGAACCAGACAAACACACGUUGUGGUAUAUUACCUGGUA [C18A G42C]
Result: 0.35

Query: // query: AUCCUCCUUCACGUGCGCGUGAAAGAGAGAAGUGAACCAGAGAAACACACGUUGUGGUAUAUUACCUGGUA [G1A U7C]
Result: 0.31

Query: // query: CUCCUCUUUCACGUGCGCGUGAAAGAGAGAAGUGAACCAUAGAAACACACGUUGUGGUAUAUUACCUGGUA [G1C G40U]
Result: 0.202

Query: // query: GUCCUCUUUCACGUGCGCGUGAAGGAGAGAAGUGAACCAGAGAAACACACGUUGUGGUAUAUUGCCUGGUA [A24G A64G]
Result: 0.533

Query: // query: GUCCUCUUUCACGUGCGCGUGAAAGAGAGAAGUGUACCAGAGAAACACACGUUGUGGUAUAUUUCCUGGUA [A35U A64U]
Result: 0.178

Query: // query: GUCUUCUUUCACGUGCGCGUGAAAGAGAGAAGUGAACCAGAGAAACACACGUUGUGCUAUAUUACCUGGUA [C4U G57C]
Result: 0.226

Query: // query: GUCCUCUUUCACGUGCGCAUGAAAGAGAGAAGUGAACCAGAGAAACACAUGUUGUGGUAUAUUACCUGGUA [G19A C50U]
Result: 0.401

Query: // query: GUCCUCUUUCACGUGCGCGUGAAAGAGAGAAGUGAACCAGAGAAACACACGUCGUGGUAUAUUACAUGGUA [U53C C66A]
Result: 0.249

Query: // query: GUCCUCUUUCACGUGCGCGUGAAACAGAGUAGUGAACCAGAGAAACACACGUUGUGGUAUAUUACCUGGUA [G25C A30U]
Result: 0.116

Query: // query: GUCCUCUUUCACGUGCGAGUGACAGAGAGAAGUGAACCAGAGAAACACACGUUGUGGUAUAUUACCUGGUA [C18A A23C]
Result: 0.863

Query: // query: GUCCUCUUUCACGUGCGCGUGGAAGAGAGAGGUGAACCAGAGAAACACACGUUGUGGUAUAUUACCUGGUA [A22G A31G]
Result: 0.744

Query: // query: GUCCUCUUUCACGUGCGCGUGAAUGAGAGAAGUGAACCAGAGAAAGACACGUUGUGGUAUAUUACCUGGUA [A24U C46G]
Result: 0.113

Query: // query: GUCUUCUUUCACGUGCGCGUGAAAGAGAGAAGUGAACCAGAGAAACACACGUUCUGGUAUAUUACCUGGUA [C4U G54C]
Result: 0.364

Query: // query: GUCCUCUUUCACGUGAGCGUGAAAGAGAGAAGUGAACCAGAGAAACACAGGUUGUGGUAUAUUACCUGGUA [C16A C50G]
Result: 0.24

Query: // query: GUCCUCUUUCACGUGCGGGUGAAAGAGAGAAAUGAACCAGAGAAACACACGUUGUGGUAUAUUACCUGGUA [C18G G32A]
Result: 0.154

Query: // query: GUCCUCUUUCACGUGCGAGUGAAAGAGAUAAGUGAACCAGAGAAACACACGUUGUGGUAUAUUACCUGGUA [C18A G29U]
Result: 0.198

Query: // query: GUCCUCUAUCACGUGCGCGUGAAAGAGAGAAGUGAACCAGAGAAACACACGUUGUGGUAUAUUACCUGGGA [U8A U70G]
Result: 0.585

Query: // query: GUCCUCUCUCACGUGCGCGUGAAAGAGAGAAGUGAACCAGAGAAACAUACGUUGUGGUAUAUUACCUGGUA [U8C C48U]
Result: 0.272

Query: // query: GACCUCUUUCACGUGCGCGUGAAAGAGAGAAGUGAACCCGAGAAACACACGUUGUGGUAUAUUACCUGGUA [U2A A39C]
Result: 0.133

Query: // query: GUCCUCUUUCACGUGCGCGUGAAAGAGAGAAGUGAACCAGUGAAACACACGUUGUGUUAUAUUACCUGGUA [A41U G57U]
Result: 0.493

Query: // query: GUCCUCUUUCACGUGCGCGUGAAAGAGAGAAGUGAACCAGAGGAACACACGUGGUGGUAUAUUACCUGGUA [A43G U53G]
Result: 0.226

Query: // query: GUCCUCAUUCACGUGCGCGUGAAAGAGAAAAGUGAACCAGAGAAACACACGUUGUGGUAUAUUACCUGGUA [U7A G29A]
Result: 0.099

Query: // query: GUCCUCUUUCACGUGCGCGUGAAAGAGAGAAGUGAACGAGAGAAACACACGUUGUAGUAUAUUACCUGGUA [C38G G56A]
Result: 0.134

Query: // query: GUCCUCAUUCACGUGCGCGUGAAAGAGAGAAGUGAACCAGAGAAACACACGUUGUGGCAUAUUACCUGGUA [U7A U58C]
Result: 1.02

Query: // query: GUCCUCUUUUACGUGCGCGUGAAAGAGAGUAGUGAACCAGAGAAACACACGUUGUGGUAUAUUACCUGGUA [C10U A30U]
Result: 0.12

Query: // query: GUCCUCUUUCACGUGCGCGUGAAAGAGAGAAGUGAACCGGACAAACACACGUUGUGGUAUAUUACCUGGUA [A39G G42C]
Result: 0.129

Query: // query: GUCCUCUUUCACGUGCGCGUGAAAGAGAGAAGUGAACCAGAGAAACUCACGCUGUGGUAUAUUACCUGGUA [A47U U52C]
Result: 0.0664

Query: // query: GUCCUCUUUCACGUGCGCGUGAAAGAGAGAAGUGAACCAGAGCAACACACGUUGUGGUAUAUUACUUGGUA [A43C C66U]
Result: 0.181

Query: // query: GUCCUCUUUCACGUGCGCGUGAAAGAGAGUAGUGAACCAGAGAAACACACGUUGUGGUGUAUUACCUGGUA [A30U A59G]
Result: 0.187

Query: // query: GUCCUCUUUCACGUGCGCGUGAAAGAGAGAAGUGAACUAGACAAACACACGUUGUGGUAUAUUACCUGGUA [C38U G42C]
Result: 0.177
